Values were extracted from patent US8541462B2.

- PROCEDURE TEXT: Metabolic stability testing in liver microsomes
- Format: in vitro ADME
- CONDITION DESCRIPTION: mixed-gender human liver microsomes, 1 mg microsomal protein/mL, initial concentration 10 μM, 60 minutes at 37° C.; WO 2006/005484-substance 7 = 100%
QUANTITY MEASURED: Normalized microsomal stability (%)
Report the figure in % without appending any unit label.

Query: Normalized microsomal stability; subject: CCC(C)[C@H](NC(=O)Cc1cccnc1)C(=O)N[C@]1(C(=O)N[C@H](C(N)=S)C(C)CC)CCc2[nH]c3c(C(F)(F)F)cccc3c2C1 (stereo partly shown)
Result: 1948

Query: Normalized microsomal stability; subject: CCC(C)[C@H](NC(=O)Cc1ccccc1F)C(=O)N[C@]1(C(=O)N[C@H](C(=O)NCN2CCOCC2)C(C)CC)CCc2[nH]c3c(C(F)(F)F)cccc3c2C1 (stereo partly shown)
Result: 774

Query: Normalized microsomal stability; subject: CCC(C)[C@H](NC(=O)Cc1ccccc1F)C(=O)N[C@]1(C(=O)N[C@H](C(=O)NCCCn2c[n+](C(C)(C)C)nn2)C(C)CC)CCc2[nH]c3c(C(F)(F)F)cccc3c2C1.O=C([O-])C(F)(F)F (stereo partly shown)
Result: 1259

Query: Normalized microsomal stability; subject: CCC(C)[C@H](NC(=O)Cc1ccccc1F)C(=O)N[C@]1(C(=O)N[C@H](CNC(=S)NCc2ccncc2)C(C)CC)CCc2[nH]c3c(C(F)(F)F)cccc3c2C1 (stereo partly shown)
Result: 800

Query: Normalized microsomal stability; subject: CCC(C)[C@H](NC(=O)Cc1ccccc1F)C(=O)N[C@]1(C(=O)N[C@H](C(=O)NNC(=O)c2ccccc2)C(C)CC)CCc2[nH]c3c(C(F)(F)F)cccc3c2C1 (stereo partly shown)
Result: 1322

Query: Normalized microsomal stability; subject: CCC(C)[C@H](NC(=O)Cc1ccccc1F)C(=O)N[C@]1(C(=O)N[C@H](C(=O)NCc2cncnc2)C(C)CC)CCc2[nH]c3c(C(F)(F)F)cccc3c2C1 (stereo partly shown)
Result: 1350

Query: Normalized microsomal stability; subject: CCC(C)[C@H](NC(=O)Cc1ccccc1F)C(=O)N[C@]1(C(=O)N[C@H](C(=S)NCC2CCOCC2)C(C)CC)CCc2[nH]c3c(C(F)(F)F)cccc3c2C1 (stereo partly shown)
Result: 178

* * *

- PROCEDURE TEXT: Metabolic stability testing in liver microsomes
- Assay type: in vitro ADME
- CONDITION DESCRIPTION: mixed-gender human liver microsomes, 1 mg microsomal protein/mL, initial concentration 10 μM, 60 minutes at 37° C.; WO 2006/005484-substance 7 = 100%
Field: label. Allowed values: T (Normalized microsomal stability < 600%) or F (Normalized microsomal stability >= 600%).

Query: Just wondering, is Normalized microsomal stability of CC[C@H](C)[C@H](NC(=O)Cc1ccccc1F)C(=O)N[C@]1(C(=O)N[C@H](c2nc(-c3ccc(OC)cc3)cs2)[C@@H](C)CC)CCc2[nH]c3c(C(F)(F)F)cccc3c2C1 below 600%?
Result: F

Query: Just wondering, is Normalized microsomal stability of CCC(C)[C@H](NC(=O)Cc1ccccc1F)C(=O)N[C@]1(C(=O)N[C@H](C(=O)Nc2ccc3ncccc3c2)C(C)CC)CCc2[nH]c3c(C(F)(F)F)cccc3c2C1 (some centres unmarked) below 600%?
Result: F

Query: Just wondering, is Normalized microsomal stability of CCC(C)[C@H](NC(=O)Cc1ccccc1F)C(=O)N[C@]1(C(=O)N[C@H](C(=S)NCCCCn2cncn2)C(C)CC)CCc2[nH]c3c(C(F)(F)F)cccc3c2C1 (some centres unmarked) below 600%?
Result: T

Query: Just wondering, is Normalized microsomal stability of CCC(C)[C@H](NC(=O)Cc1ccccc1F)C(=O)N[C@]1(C(=O)N[C@H](C(=O)NNc2ccccc2)C(C)CC)CCc2[nH]c3c(C(F)(F)F)cccc3c2C1 (some centres unmarked) below 600%?
Result: F

Query: Just wondering, is Normalized microsomal stability of CCNC(=O)NC[C@@H](NC(=O)[C@@]1(NC(=O)[C@@H](NC(=O)Cc2ccccc2F)C(C)CC)CCc2[nH]c3c(C(F)(F)F)cccc3c2C1)C(C)CC (some centres unmarked) below 600%?
Result: T

Query: Just wondering, is Normalized microsomal stability of CCC(C)[C@H](NC(=O)NCc1ccc(OC)cc1)C(=O)N[C@]1(C(=O)N[C@H](C(N)=S)C(C)CC)CCc2[nH]c3c(C(F)(F)F)cccc3c2C1 (some centres unmarked) below 600%?
Result: T

Query: Just wondering, is Normalized microsomal stability of CCC(C)[C@H](NC(=O)Cc1ccccc1F)C(=O)N[C@]1(C(=O)N[C@H](C(=S)NCCCn2ccnc2)C(C)CC)CCc2[nH]c3c(C(F)(F)F)cccc3c2C1 (some centres unmarked) below 600%?
Result: F

Query: Just wondering, is Normalized microsomal stability of CCNC(=O)Nc1nnc([C@@H](NC(=O)[C@]2(NC(=O)[C@@H](NC(=O)Cc3ccccc3F)C(C)CC)CCc3[nH]c4c(C(F)(F)F)cccc4c3C2)C(C)CC)o1 (some centres unmarked) below 600%?
Result: T

Query: Just wondering, is Normalized microsomal stability of CCC(C)[C@H](NC(=O)Cc1ccncc1)C(=O)N[C@]1(C(=O)N[C@H](C(N)=S)C(C)CC)CCc2[nH]c3c(C(F)(F)F)cccc3c2C1 (some centres unmarked) below 600%?
Result: F

Query: Just wondering, is Normalized microsomal stability of CCOC(=O)c1csc([C@@H](NC(=O)[C@@]2(NC(=O)[C@@H](NC(=O)NCc3ccccc3F)[C@@H](C)CC)CCc3[nH]c4c(C(F)(F)F)cccc4c3C2)[C@@H](C)CC)n1 below 600%?
Result: F

* * *

- STUDY SYSTEM: LHRH receptor (endogenous GnRH receptor of alpha T3-1 cell line) (Mus musculus, UniProt Q01776)
- Construct: alpha T3-1 cell line with endogenous GnRH receptor expression; endogenous in cells; host or cells: alpha T3-1 cells (intact cell suspension)
- Sequence (Q01776 1-327): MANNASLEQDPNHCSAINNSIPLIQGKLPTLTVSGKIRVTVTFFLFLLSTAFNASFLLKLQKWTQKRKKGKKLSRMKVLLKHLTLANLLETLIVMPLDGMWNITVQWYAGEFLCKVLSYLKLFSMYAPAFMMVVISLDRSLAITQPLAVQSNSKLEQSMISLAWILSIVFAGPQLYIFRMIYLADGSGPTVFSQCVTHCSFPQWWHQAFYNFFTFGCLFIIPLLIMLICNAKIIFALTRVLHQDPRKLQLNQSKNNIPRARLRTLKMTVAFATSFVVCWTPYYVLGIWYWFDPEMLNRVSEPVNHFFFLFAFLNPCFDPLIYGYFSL
- PROCEDURE TEXT: LHRH-receptor binding assay (displacement of [125I] cetrorelix on alpha T3-1 cells)
- CONDITION DESCRIPTION: WO 2006/005484-substance 75 = 100%
Structures can show the parent of a compound that is named as a salt.
QUANTITY MEASURED: Normalized Affinity (%)
Report the figure in % without appending any unit label.

Query: Normalized Affinity; subject: CCC(C)[C@H](NC(=O)Cc1ccccc1F)C(=O)N[C@]1(C(=O)N[C@H](C(=S)NCc2nnc(C)o2)C(C)CC)CCc2[nH]c3c(C(F)(F)F)cccc3c2C1 (some centres unmarked) [compound 118]
Result: 285

Query: Normalized Affinity; subject: CCC(C)[C@H](NC(=O)Cc1ccccc1F)C(=O)N[C@]1(C(=O)N[C@H](C(=S)NCCCn2ccnc2)C(C)CC)CCc2[nH]c3c(C(F)(F)F)cccc3c2C1 (some centres unmarked) [Compound 74]
Result: 247

Query: Normalized Affinity; subject: CCC(C)[C@H](NC(=O)Cc1ccccc1F)C(=O)N[C@]1(C(=O)N[C@H](C(=S)NCCN2CCOCC2)C(C)CC)CCc2[nH]c3c(C(F)(F)F)cccc3c2C1 (some centres unmarked) [compound 54 (TFA salt)]
Result: 247

Query: Normalized Affinity; subject: CCC(C)[C@H](NC(=O)Cc1ccccc1F)C(=O)N[C@]1(C(=O)N[C@H](C(=O)Nc2ccc(OC)cc2O)C(C)CC)CCc2[nH]c3c(C(F)(F)F)cccc3c2C1 (some centres unmarked) [Compound 71]
Result: 411

Query: Normalized Affinity; subject: CCC(C)[C@H](NC(=O)Cc1ccccc1F)C(=O)N[C@]1(C(=O)N[C@H](C(=O)Nc2ccc(OC)c(O)c2)C(C)CC)CCc2[nH]c3c(C(F)(F)F)cccc3c2C1 (some centres unmarked) [Compound 69]
Result: 529

Query: Normalized Affinity; subject: CCC(C)[C@H](NC(=O)Cc1ccccc1F)C(=O)N[C@]1(C(=O)N[C@H](C(=S)NCC2CCOCC2)C(C)CC)CCc2[nH]c3c(C(F)(F)F)cccc3c2C1 (some centres unmarked) [Compound 52]
Result: 218

Query: Normalized Affinity; subject: CCC(C)[C@H](NC(=O)Cc1ccccc1F)C(=O)N[C@]1(C(=O)N[C@H](C(=O)Nc2nnn(C(C)(C)C)n2)C(C)CC)CCc2[nH]c3c(C(F)(F)F)cccc3c2C1 (some centres unmarked) [compound 178]
Result: 370

Query: Normalized Affinity; subject: CCC(C)[C@H](NC(=O)Cc1ccccc1F)C(=O)N[C@]1(C(=O)N[C@H](C(=S)NCc2ccncc2)C(C)CC)CCc2[nH]c3c(C(F)(F)F)cccc3c2C1 (some centres unmarked) [Compound 60]
Result: 247
